# assay-procedure: Tmax in BALB/c mouse at 30 mg/kg measured for 24 hrs by UPLC-MS/MS analysis
# Format: ADME, organism-based
# test-parameters: in vivo
measurement-type: Tmax (h)

>>> recorded_result("Cc1ncsc1-c1ccc(CNC(=O)[C@@H]2C[C@@H](O)CN2C(=O)[C@@H](NC(=O)COCCCCOc2ccc(C3CCN(C4=Nn5c(nnc5C(F)(F)F)CC4)CC3)cc2)C(C)(C)C)cc1")
1.67

---

# assay-procedure: Oral bioavailability in C57BL/6 mouse at 30 mg/kg by LC-MS/MS analysis
# Assay type: ADME, organism-based
# test-parameters: in vivo
measurement-type: bioavailability (%)

>>> recorded_result("CNc1nc(Nc2ccc(C(=O)N3CCN(C[C@H]4CC[C@H](CSC(C)(C)[C@H](NC(=O)C5(F)CC5)C(=O)N5C[C@H](O)C[C@H]5C(=O)NCc5ccc(-c6scnc6C)cc5)CC4)CC3)cc2OC)ncc1Cl")
15

---

# assay-procedure: Oral bioavailability in BALB/c mouse at 30 mg/kg measured for 24 hrs by UPLC-MS/MS analysis
# Format: ADME, organism-based
# test-parameters: in vivo
measurement-type: bioavailability (%)

>>> recorded_result("Cc1ncsc1-c1ccc(CNC(=O)[C@@H]2C[C@@H](O)CN2C(=O)[C@@H](NC(=O)COCCCCOc2ccc(C3CCN(C4=Nn5c(nnc5C(F)(F)F)CC4)CC3)cc2)C(C)(C)C)cc1")
23

---

# assay-procedure: Cmax in C57BL/6 mouse at 30 mg/kg, po by LC-MS/MS analysis
# Assay type: ADME, organism-based
# test-parameters: in vivo
measurement-type: Cmax (ng/mL)

>>> recorded_result("CNc1nc(Nc2ccc(C(=O)N3CCN(C[C@H]4CC[C@H](CSC(C)(C)[C@H](NC(=O)C5(F)CC5)C(=O)N5C[C@H](O)C[C@H]5C(=O)NCc5ccc(-c6scnc6C)cc5)CC4)CC3)cc2OC)ncc1Cl")
3620
>>> recorded_result("Cc1ncsc1-c1ccc(CNC(=O)[C@@H]2C[C@@H](O)CN2C(=O)[C@@H](NC(=O)CCCCCCCCCCNC(=O)OC2C[C@@H](C)C=C3C=C[C@H](C)[C@H](CC[C@@H]4C[C@H](O)CC(=O)O4)[C@H]32)C(C)(C)C)cc1 (some centres not stated)")
470

---

# assay-procedure: AUC in mouse at 30 mg/kg, po
# Assay type: ADME, organism-based
# test-parameters: in vivo
measurement-type: AUC

>>> recorded_result("O=C1CC[C@H](N2Cc3cc(N4CCN(CC5CCN(c6ccc([C@@H]7c8ccc(O)cc8CC[C@@H]7c7ccccc7)cc6)CC5)CC4)ccc3C2=O)C(=O)N1 [VEPDEGESTRANT]")
"5720 ng·h/mL"

---

# assay-procedure: Oral bioavailability in mouse
# Format: ADME, organism-based
# test-parameters: in vivo
measurement-type: bioavailability (%)

>>> recorded_result("NC(=O)c1ncc(N2CCCCC2)nc1Nc1ccc(C2CCN(C[C@@H]3CCN(c4ccc5c(c4)C(=O)N(C4CCC(=O)NC4=O)C5=O)C3)CC2)cc1 (some centres not stated)")
8

---

# assay-procedure: AUC (0 to t) in ICR mouse at 30 mg/kg, po measured upto 24 hrs by HPLC-MS/MS analysis
# Type: ADME, organism-based
# test-parameters: in vivo
measurement-type: AUC(0-t) at 24 h (ng·h/mL)

>>> recorded_result("Cc1ncsc1-c1ccc([C@H](CC[C@H](C)CCN2CCC(c3ccc4c(c3)n(C3CCCC3)c3nc(=O)c5c(Br)cccc5n43)CC2)NC(=O)[C@@H]2C[C@@H](O)CN2C(=O)[C@@H](NC(=O)C2(F)CC2)C(C)(C)C)cc1")
50000

---

# assay-procedure: Cmax in mouse at 10 mg/kg, po measured upto 24 hrs by LC-MS/MS analysis
# Type: ADME, organism-based
# test-parameters: in vivo
measurement-type: Cmax (nM)

>>> recorded_result("NC(=O)c1ncc(N2CCCCC2)nc1Nc1ccc(C2CCN(C[C@@H]3CCN(c4ccc5c(c4)C(=O)N(C4CCC(=O)NC4=O)C5=O)C3)CC2)cc1 (stereo partly specified)")
1300

---

# assay-procedure: Cmax in CD-1 mouse plasma at 10 mg/kg, po by LC-MS/MS analysis
# Assay type: ADME, organism-based
measurement-type: Cmax

>>> recorded_result("COc1cc(N2CCC(N3CCN(CCC#Cc4cccc5c4CN(C4CCC(=O)NC4=O)C5=O)CC3)CC2)ccc1Nc1ncc(Cl)c(Nc2ccccc2P(C)(C)=O)n1 (stereo unspecified)")
"3680 ng/mL"

---

# assay-procedure: Cmax in Sprague-Dawley rat at 40 mg/kg, po measured after 24 hrs by LC-MS/MS analysis
# Format: ADME, organism-based
# test-parameters: in vivo
measurement-type: Cmax (ng/mL)

>>> recorded_result("N#Cc1cccc(-c2ccc(=O)n(Cc3cccc(-c4ncc(OCC5CCN(CC(=O)N6CCN(c7ccc8c(c7)C(=O)N(C7CCC(=O)NC7=O)C8=O)CC6)CC5)cn4)c3)n2)c1 (stereo unspecified)")
8.47

---

# test-system: Voltage-gated inwardly rectifying potassium channel KCNH2 (Homo sapiens, UniProt Q12809)
# Sequence (Q12809 whole entry): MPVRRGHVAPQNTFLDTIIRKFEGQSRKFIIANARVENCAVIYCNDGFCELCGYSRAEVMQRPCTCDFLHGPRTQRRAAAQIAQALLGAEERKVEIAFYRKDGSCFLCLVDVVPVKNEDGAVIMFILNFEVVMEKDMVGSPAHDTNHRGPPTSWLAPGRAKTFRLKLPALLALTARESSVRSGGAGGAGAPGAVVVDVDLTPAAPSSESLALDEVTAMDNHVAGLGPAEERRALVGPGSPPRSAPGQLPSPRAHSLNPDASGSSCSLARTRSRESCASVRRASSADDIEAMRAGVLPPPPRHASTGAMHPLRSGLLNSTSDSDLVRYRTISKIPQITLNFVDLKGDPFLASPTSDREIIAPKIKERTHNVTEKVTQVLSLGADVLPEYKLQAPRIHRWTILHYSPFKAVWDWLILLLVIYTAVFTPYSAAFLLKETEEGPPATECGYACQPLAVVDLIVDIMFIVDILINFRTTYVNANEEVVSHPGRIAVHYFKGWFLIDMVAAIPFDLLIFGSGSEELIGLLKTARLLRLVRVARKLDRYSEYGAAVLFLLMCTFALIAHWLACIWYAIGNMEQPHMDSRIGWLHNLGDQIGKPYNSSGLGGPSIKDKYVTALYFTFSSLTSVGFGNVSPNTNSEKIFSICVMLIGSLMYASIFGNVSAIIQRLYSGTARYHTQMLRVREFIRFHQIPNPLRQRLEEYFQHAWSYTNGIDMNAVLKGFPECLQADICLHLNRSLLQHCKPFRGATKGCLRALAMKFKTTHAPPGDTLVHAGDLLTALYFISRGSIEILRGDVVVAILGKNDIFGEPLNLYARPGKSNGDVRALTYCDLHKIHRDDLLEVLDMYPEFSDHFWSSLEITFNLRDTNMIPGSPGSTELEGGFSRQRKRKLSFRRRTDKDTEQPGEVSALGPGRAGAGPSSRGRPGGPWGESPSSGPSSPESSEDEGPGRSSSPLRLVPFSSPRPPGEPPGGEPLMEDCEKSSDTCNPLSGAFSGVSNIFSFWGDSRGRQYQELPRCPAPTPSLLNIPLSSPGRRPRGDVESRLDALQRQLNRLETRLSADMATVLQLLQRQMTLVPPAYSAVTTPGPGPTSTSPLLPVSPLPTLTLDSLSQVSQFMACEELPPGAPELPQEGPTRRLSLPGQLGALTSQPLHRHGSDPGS
measurement-type: IC50 (µM)

>>> recorded_result("COc1cc(-c2cn(C)c(=O)c3cnccc23)cc(Cl)c1CN1CCC(C2CCN(C(=O)c3ccc(NC4CCC(=O)NC4=O)cc3C(F)(F)F)CC2)CC1 (stereo unspecified)")
7.5

---

Reported Tmax values are given for each entry in this list.
# assay-procedure: Tmax in C57BL/6 mouse at 30 mg/kg, po by LC-MS/MS analysis
# Format: ADME, organism-based
# test-parameters: in vivo
measurement-type: Tmax (h)

>>> recorded_result("Cc1ncsc1-c1ccc(CNC(=O)[C@@H]2C[C@@H](O)CN2C(=O)[C@@H](NC(=O)CCCCCCCCCCNC(=O)OC2C[C@@H](C)C=C3C=C[C@H](C)[C@H](CC[C@@H]4C[C@H](O)CC(=O)O4)[C@H]32)C(C)(C)C)cc1 (some centres not stated)")
8
>>> recorded_result("CNc1nc(Nc2ccc(C(=O)N3CCN(C[C@H]4CC[C@H](CSC(C)(C)[C@H](NC(=O)C5(F)CC5)C(=O)N5C[C@H](O)C[C@H]5C(=O)NCc5ccc(-c6scnc6C)cc5)CC4)CC3)cc2OC)ncc1Cl")
2

---

# assay-procedure: Oral bioavailability in mouse at 5 mg/kg by LC-MS/MS analysis
# Assay type: ADME, organism-based
# test-parameters: in vivo
measurement-type: bioavailability (%)

>>> recorded_result("N#Cc1ccc(O[C@H]2CC[C@H](NC(=O)c3ccc(N4CCC(CN5CCN(c6cc7c(cc6F)C(=O)N(C6CCC(=O)NC6=O)C7=O)CC5)CC4)nn3)CC2)cc1Cl (stereo partly specified) [BAVDEGALUTAMIDE]")
37.9

---

# assay-procedure: AUC (0 to t) in C57BL/6 mouse at 30 mg/kg, po by LC-MS/MS analysis
# Assay type: ADME, organism-based
# test-parameters: in vivo
AUC(0-t): recorded values
measurement-type: AUC(0-t)

>>> recorded_result("Cc1ncsc1-c1ccc(CNC(=O)[C@@H]2C[C@@H](O)CN2C(=O)[C@@H](NC(=O)CCCCCCCCCCNC(=O)OC2C[C@@H](C)C=C3C=C[C@H](C)[C@H](CC[C@@H]4C[C@H](O)CC(=O)O4)[C@H]32)C(C)(C)C)cc1 (some centres not stated)")
"5000 ng·h/mL"
>>> recorded_result("CNc1nc(Nc2ccc(C(=O)N3CCN(C[C@H]4CC[C@H](CSC(C)(C)[C@H](NC(=O)C5(F)CC5)C(=O)N5C[C@H](O)C[C@H]5C(=O)NCc5ccc(-c6scnc6C)cc5)CC4)CC3)cc2OC)ncc1Cl")
"21300 ng·h/mL"

---

# assay-procedure: AUC (0 to t) in Sprague-Dawley rat at 40 mg/kg, IG measured up to 24 hrs by LC-MS/MS analysis
# Format: ADME, organism-based
# test-parameters: in vivo, po
measurement-type: AUC(0-t) at 24 h (ng·h/mL)

>>> recorded_result("N#Cc1cccc(-c2ccc(=O)n(Cc3cccc(-c4ncc(OCC5CCN(CC(=O)N6CCN(c7ccc8c(c7)C(=O)N(C7CCC(=O)NC7=O)C8=O)CC6)CC5)cn4)c3)n2)c1 (stereo unspecified)")
74.2

---

# assay-procedure: Half life in CD-1 mouse at 10 mg/kg, po measured for 24 hrs by LC-MS/MS analysis
# Format: ADME, organism-based
# test-parameters: in vivo
measurement-type: half-life (h)

>>> recorded_result("COc1cc(N2CCC(N3CCN(CCC#Cc4cccc5c4CN(C4CCC(=O)NC4=O)C5=O)CC3)CC2)ccc1Nc1ncc(Cl)c(Nc2ccccc2P(C)(C)=O)n1 (stereo unspecified)")
2.08

---

# assay-procedure: Oral bioavailability in Sprague-Dawley rat at 5 mg/kg incubated for 24 hrs by LC-MS/MS analysis
# Type: ADME, organism-based
# test-parameters: in vivo
measurement-type: bioavailability (%)

>>> recorded_result("COc1cc(-c2cn(C)c(=O)c3cnccc23)cc(Cl)c1CN1CCC(C2CCN(C(=O)c3ccc(NC4CCC(=O)NC4=O)cc3C(F)(F)F)CC2)CC1 (stereo unspecified)")
48
